target-desc: CDK2 (Homo sapiens)
Construct: endogenous in cells; host or cells: MDA-MB-231
run-description: CDK protein degradation activity (Western blotting), CDK2
Assay type: cell-based
condition-label: MDA-MB-231 cells, 10 μM, 16 hours, Western blot
result-type: Enzyme degradation CDK2 (% remaining) @ 10 μM

The examples below pair each entry with its known result.
molecule: Cc1cccc(C(=O)NC2CC(n3cnc4c(Nc5ccc(N6CCN(C7CC8(CCN(c9ccc%10c(c9)C(=O)N([C@H]9CCC(=O)NC9=O)C%10=O)CC8)C7)CC6)cc5)ncnc43)C2)n1 (stereo partly drawn) [Compound 384]
reported: 20/20/20%
//
molecule: O=C1CC[C@H](N2C(=O)c3cccc(CCCCN4CCC(CN5CCN(c6ccc(Nc7ncnc8c7ncn8[C@H]7C[C@@H](NC(=O)c8cccc(C(F)(F)F)n8)C7)cc6)CC5)CC4)c3C2=O)C(=O)N1 [Compound 427]
reported: 20/20/20%

API: the following record is the query input.
Per the record, Cc1cccc(C(=O)NC2CC(n3cnc4c(Nc5ccc(N6CCN(CC7CCN(C(=O)COc8ccc([C@@H]9CCC(=O)NC9=O)cc8)CC7)CC6)cc5)ncnc43)C2)n1 (stereo partly drawn) [Compound 443] has Enzyme degradation CDK2 (% remaining) @ 10 μM of 20/20/20%

====

Listing: Enzyme degradation CDK9 (% remaining) @ 0.1 μM of selected compounds
target-desc: CDK9 (Homo sapiens, UniProt P50750)
Construct: endogenous in cells; host or cells: MDA-MB-231
Sequence (P50750 whole entry): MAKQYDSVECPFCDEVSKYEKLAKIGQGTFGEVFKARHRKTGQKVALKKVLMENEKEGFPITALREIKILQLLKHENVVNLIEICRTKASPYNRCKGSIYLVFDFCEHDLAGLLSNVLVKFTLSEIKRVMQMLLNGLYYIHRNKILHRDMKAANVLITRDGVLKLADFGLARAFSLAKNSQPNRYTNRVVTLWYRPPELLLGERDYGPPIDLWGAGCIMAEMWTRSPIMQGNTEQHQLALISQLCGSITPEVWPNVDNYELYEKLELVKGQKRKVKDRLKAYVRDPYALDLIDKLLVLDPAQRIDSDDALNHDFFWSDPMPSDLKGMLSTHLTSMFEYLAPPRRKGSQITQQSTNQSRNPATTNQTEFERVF
run-description: CDK protein degradation activity (Western blotting), CDK9
Type: cell-based
condition-label: MDA-MB-231 cells, 0.1 μM, 16 hours, Western blot
Experimental: In order to evaluate the CDK protein degradation activity of the compounds according to the present invention, the following experiment was conducted. MDA-MB-231 cells were seeded at 5×10^5 cells per well in a 6-well plate. The next day, the compounds were treated in each well to achieve final concentrations of 100 nM, 1 μM, and 10 μM. […] Cell lysates were quantified and separated by size using sodium dodecyl sulfate-polyacrylamide gel electrophoresis (SDS-PAGE). […]

The examples below pair each entry with its known result.
compound: O=C1CC[C@H](N2C(=O)c3cccc(NCC(=O)N4CCC5(CC4)CC(N4CCN(c6ccc(Nc7ncnc8c7ncn8[C@H]7C[C@@H](NC(=O)Cc8ccccc8)C7)cc6)CC4)C5)c3C2=O)C(=O)N1
reported: 0/0/0%
--
compound: O=C1CC[C@H](N2C(=O)c3ccc(N4CC(C(=O)N5CCC(CCN6CCN(c7ccc(Nc8ncnc9c8ncn9C8CC(NC(=O)c9c(Cl)cccc9Cl)C8)cc7)CC6)CC5)C4)cc3C2=O)C(=O)N1 (some centres unmarked)
reported: 10/10/10%
--
compound: O=C1CC[C@H](N2C(=O)c3cc(F)c(N4CCC(C(=O)N5CCC(CN6CCN(c7ccc(Nc8ncnc9c8ncn9[C@H]8C[C@@H](NC(=O)c9c(Cl)cccc9Cl)C8)cc7)CC6)CC5)CC4)cc3C2=O)C(=O)N1
reported: 0/0/0%
--
compound: Cc1cccc(C(=O)NC2CC(n3cnc4c(NCc5ccc(N6CCN(CC7CCN(C(=O)CNc8ccc9c(c8)C(=O)N([C@H]8CCC(=O)NC8=O)C9=O)CC7)CC6)cc5)ncnc43)C2)n1 (some centres unmarked)
reported: 0/0/0%

Per the record, O=C1CCC(n2nnc3ccc(N4CC(N5CCN(c6ccc(Nc7ncnc8c7ncn8[C@H]7C[C@@H](NC(=O)Cc8ccccc8)C7)cc6)CC5)C4)cc3c2=O)C(=O)N1 (some centres unmarked) has Enzyme degradation CDK9 (% remaining) @ 0.1 μM of 30/30/30%
